CCR5 (Homo sapiens (Human)) (UniProt P51681): reported inhibition of envelope-mediated cell fusion for various substances.

Known results for substances:
Briefly, inhibition of envelope-mediated cell fusion measured for NNY-P-Y3Chg-RANTES (4-68) (from UniProt P13501) (ligand) : > 50 % inhibition

inhibition of envelope-mediated cell fusion for NNY-P2Thz-Y3Chg-RANTES (4-68) (from UniProt P13501) (ligand) is > 50 % inhibition

Memo: NNY-P2Thz-Y3tButA-RANTES (4-68) (from UniProt P13501) (ligand) , reported inhibition of envelope-mediated cell fusion: > 50 % inhibition

Further cases:
Kindly note the recorded inhibition of envelope-mediated cell fusion for NNY-P-Y3tbuA-RANTES (4-68) (from UniProt P13501) (ligand) , which is > 50 % inhibition
